# protocol.description: MicroPET blood and normal organ uptake in T47D and MDA-MB-435 tumor-bearing nude mice
# test.parameters: nude, mouse, liver, iv, total radioactivity
measure: tissue uptake at 1 h

Which tissue uptake at 1 h is listed for CSCC[C@H](NC(=O)[C@H](CC(C)C)NC(=O)[C@H](Cc1c[nH]cn1)NC(=O)CNC(=O)[C@@H](NC(=O)[C@H](C)NC(=O)[C@H](Cc1c[nH]c2ccccc12)NC(=O)[C@H](CCC(N)=O)NC(=O)CCCCCNC(=O)CC[C@H](NC(=O)COCCOCCOCCNC(=O)c1ccc([18F])cc1)C(=O)NCCCC[C@@H]1NC(=O)[C@@H](Cc2ccc(O)cc2)NC(=O)[C@H](CC(=O)O)NC(=O)CNC(=O)[C@H](CCCNC(=N)N)NC1=O)C(C)C)C(N)=O [^18F-FB-PEG3-RGD-BBN] ?
0.56 %ID/g

Reference for the values: patent US20100015058A1
